Reference source for all entries: patent US8431567B2

Observed Ki values for human vasopressin V1b receptor (Homo sapiens, UniProt P47901) are listed in what follows.
Structures can show the parent of a compound that is named as a salt.

- compound: "CCOc1ccccc1C1(N2CCN(c3ccncc3)CC2)C(=O)N(S(=O)(=O)c2ccc(C(C)(C)C)cc2)c2ccc(C#N)cc21 (racemic)"
  measured-target: "human vasopressin V1b receptor (Homo sapiens, UniProt P47901)"
  Ki: "50 to 500 nM"
- compound: "CCOc1ccc(OC)cc1C1(N2CC3CN(c4ccncc4)CC3C2)C(=O)N(S(=O)(=O)c2ccc(OC)cc2OC)c2ccc(C#N)cc21 (stereo not drawn)"
  measured-target: "human vasopressin V1b receptor (Homo sapiens, UniProt P47901)"
  Ki: "< 50 nM"
- compound: "CCOc1ccc(OC)cc1C1(N2CCN(C3CCNCC3)CC2)C(=O)N(S(=O)(=O)c2ccc(OC)cc2OC)c2ccc(C#N)cc21 (racemic) [Example 100, hydrochloride]"
  measured-target: "human vasopressin V1b receptor (Homo sapiens, UniProt P47901)"
  Ki: "< 50 nM"
- compound: "CCOc1ccccc1C1(N2CCN(c3ccncc3)CC2)C(=O)N(S(=O)(=O)c2ccc([N+](=O)[O-])cc2OC)c2ccc(C#N)cc21 (racemic)"
  measured-target: "human vasopressin V1b receptor (Homo sapiens, UniProt P47901)"
  Ki: "50 to 500 nM"
- compound: "CCOc1ccccc1C1(N2CCN(c3ccncc3)CC2)C(=O)N(S(=O)(=O)c2ccc(Cl)cc2F)c2ccc(C#N)cc21 (racemic)"
  measured-target: "human vasopressin V1b receptor (Homo sapiens, UniProt P47901)"
  Ki: "50 to 500 nM"
- compound: "CCOc1c(OC)cccc1C1(N2CCN(c3ccnc(C(C)C)c3)CC2)C(=O)N(S(=O)(=O)c2ccc(OC)cc2OC)c2ccc(C#N)cc21 (stereo not drawn)"
  measured-target: "human vasopressin V1b receptor (Homo sapiens, UniProt P47901)"
  Ki: "< 50 nM"

* * *

Observed pKi values for human vasopressin V1b receptor (Homo sapiens) are listed in what follows.
pKi: −log10 of the molar value. Where a name gives a salt, the structure may show the parent alone.
readout-label: pKi

- compound: "COc1ccc(C2(N3CCN(c4ccncc4)CC3)C(=O)N(S(=O)(=O)c3ccc(OC)cc3OC)c3ccc(Cl)cc32)c(OC)c1 (stereo not drawn) [Example 30, HCl salt]"
  result: "> 7.30"
- compound: "CCOc1ccccc1C1(N2CCN(c3ccncc3)CC2)C(=O)N(S(=O)(=O)c2ccc(S(C)(=O)=O)cc2)c2ccc(C#N)cc21 (racemic)"
  result: "6.30 to 7.30"
- compound: "CCOc1ccc(C)cc1C1(N2CCN(c3ccncc3)CC2)C(=O)N(S(=O)(=O)c2ccc(OC)cc2OC)c2ccc(C#N)cc21 (racemic)"
  result: "> 7.30"
- compound: "CCOc1ccccc1C1(N2CCN(c3ccncc3)CC2)C(=O)N(S(=O)(=O)c2ccc(N)cc2)c2ccc(C#N)cc21 (racemic)"
  result: "6.30 to 7.30"
- compound: "CCOc1ccccc1C1(N2CCN(c3ccnc(CC)c3)CC2)C(=O)N(S(=O)(=O)c2ccc(OC)cc2OC)c2ccc(C#N)cc21 (racemic)"
  result: "> 7.30"
- compound: "COc1ccc(S(=O)(=O)N2C(=O)C(c3ccccc3Cl)(N3CCN(c4ccncc4)CC3)c3cc(Cl)ccc32)c(OC)c1 (stereo not drawn)"
  result: "> 7.30"

* * *

Observed Ki values for human vasopressin V1b receptor (Homo sapiens, UniProt P47901) are listed in what follows.
readout-label: Ki

- compound: "CCOc1ccc(OC)cc1C1(N2C[C@@H]3C[C@H]2CN3c2ccncc2)C(=O)N(S(=O)(=O)c2ccc(OC)cc2OC)c2ccc(C#N)cc21 (stereo partly drawn) [Example 52]"
  result: "< 50 nM"
- compound: "CCOc1ccc(OC)cc1C1(N2CCN(c3ccncc3)CC2)C(=O)N(S(=O)(=O)c2ccc(OC)cc2OC)c2ccc(C#N)cc21 (stereo not drawn) [Example 55]"
  result: "< 50 nM"
- compound: "CCOc1ccccc1C1(N2CCN(c3ccncc3)CC2)C(=O)N(S(=O)(=O)c2ccc(OC)cc2OC)c2ccc(C#N)cc21 (stereo not drawn) [Example 10]"
  result: "< 50 nM"
- compound: "COc1ccc(S(=O)(=O)N2C(=O)C(c3ccccc3OC)(N3CCN(c4ccncc4)CC3)c3cc(Cl)ccc32)cc1OC (stereo not drawn) [Example 12]"
  result: "50 to 500 nM"
- compound: "COc1ccc(S(=O)(=O)N2C(=O)C(c3cc(OC)ccc3OC)(N3CCN(c4ccncc4)CC3)c3cc(C#N)ccc32)cc1 (stereo not drawn) [Example 63]"
  result: "< 50 nM"
- compound: "COc1ccccc1C1(N2CCN(c3ccncc3)CC2)C(=O)N(S(=O)(=O)c2ccccc2OC)c2ccc(Cl)cc21 (stereo not drawn) [Example 5]"
  result: "< 50 nM"

* * *

# measured-target: human vasopressin V1b receptor (Homo sapiens, UniProt P47901)
# Sequence (P47901 1-424): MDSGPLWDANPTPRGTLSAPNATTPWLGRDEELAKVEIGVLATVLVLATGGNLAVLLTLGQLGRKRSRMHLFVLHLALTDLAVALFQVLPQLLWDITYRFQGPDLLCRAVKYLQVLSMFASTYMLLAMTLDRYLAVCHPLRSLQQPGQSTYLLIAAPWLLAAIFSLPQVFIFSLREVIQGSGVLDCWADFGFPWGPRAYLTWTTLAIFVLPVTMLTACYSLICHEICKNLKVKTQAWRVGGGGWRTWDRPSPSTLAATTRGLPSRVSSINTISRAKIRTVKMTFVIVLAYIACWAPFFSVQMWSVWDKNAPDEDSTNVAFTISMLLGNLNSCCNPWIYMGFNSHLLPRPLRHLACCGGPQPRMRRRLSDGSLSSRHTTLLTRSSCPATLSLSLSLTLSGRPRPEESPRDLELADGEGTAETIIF
pKi: −log10 of the molar value.

- molecule: "COc1ccc(S(=O)(=O)N2C(=O)C(c3cc(F)ccc3OC)(N3CCN(c4ccncc4)CC3)c3cc(C#N)ccc32)c(OC)c1 (racemic)"
  measured-target: "human vasopressin V1b receptor (Homo sapiens, UniProt P47901)"
  pKi: "6.30 to 7.30"
- molecule: "CCOc1cc(OC)ccc1C1(N2CCN(c3ccnc(C(C)C)c3)CC2)C(=O)N(S(=O)(=O)c2ccc(OC)cc2OC)c2ccc(C#N)cc21 (stereo not drawn)"
  measured-target: "human vasopressin V1b receptor (Homo sapiens, UniProt P47901)"
  pKi: "> 7.30"
- molecule: "CCOc1ccccc1C1(N2CCN(c3ccncc3)CC2)C(=O)N(S(=O)(=O)c2cccc(N)c2)c2ccc(C#N)cc21 (stereo not drawn)"
  measured-target: "human vasopressin V1b receptor (Homo sapiens, UniProt P47901)"
  pKi: "6.30 to 7.30"

* * *

# measured-target: human vasopressin V1b receptor (Homo sapiens)
pKi: −log10 of the molar value. Counter-ions that a name gives are not always drawn.
Measured pKi, listed per entry.

- compound: "CCOc1ccc(CC)cc1C1(N2CCN(c3ccnc(C(C)C)c3)CC2)C(=O)N(S(=O)(=O)c2ccc(OC)cc2OC)c2ccc(C#N)cc21 (racemic)"
  pKi: "> 7.30"
- compound: "CCOc1ccccc1C1(N2CCN(c3ccncc3)CC2)C(=O)N(S(=O)(=O)c2ccc(F)cc2)c2ccc(C#N)cc21 (stereo not drawn)"
  pKi: "6.30 to 7.30"
- compound: "CCOc1ccccc1C1(N2CCN(C3CCN(C)CC3)CC2)C(=O)N(S(=O)(=O)c2ccc(OC)cc2OC)c2ccc(C#N)cc21 (racemic)"
  pKi: "6.30 to 7.30"
- compound: "COc1ccc(S(=O)(=O)N2C(=O)C(c3ccccc3OC)(N3CCN(c4ccncc4)CC3)c3cc(C#N)ccc32)c(OC)c1 (stereo not drawn)"
  pKi: "6.30 to 7.30"
- compound: "CCOc1ccc(OC)cc1C1(N2CCN(c3ccncc3)CC2)C(=O)N(S(=O)(=O)c2ccc(OC)cc2OC)c2ccc(C#N)cc21 (single isomer, unassigned; (+)) [Example 96]"
  pKi: "> 7.30"
- compound: "COc1ccc(S(=O)(=O)N2C(=O)C(c3cccc(OC)c3OC)(N3CCN(c4ccncc4)CC3)c3cc(Cl)ccc32)c(OC)c1 (stereo not drawn) [Example 31, HCl salt]"
  pKi: "> 7.30"
